Each entry below carries its reported inhibition at 125 µg/mL.
Target: Butyrylcholinesterase (Homo sapiens)
Sequence (P06276 29-602): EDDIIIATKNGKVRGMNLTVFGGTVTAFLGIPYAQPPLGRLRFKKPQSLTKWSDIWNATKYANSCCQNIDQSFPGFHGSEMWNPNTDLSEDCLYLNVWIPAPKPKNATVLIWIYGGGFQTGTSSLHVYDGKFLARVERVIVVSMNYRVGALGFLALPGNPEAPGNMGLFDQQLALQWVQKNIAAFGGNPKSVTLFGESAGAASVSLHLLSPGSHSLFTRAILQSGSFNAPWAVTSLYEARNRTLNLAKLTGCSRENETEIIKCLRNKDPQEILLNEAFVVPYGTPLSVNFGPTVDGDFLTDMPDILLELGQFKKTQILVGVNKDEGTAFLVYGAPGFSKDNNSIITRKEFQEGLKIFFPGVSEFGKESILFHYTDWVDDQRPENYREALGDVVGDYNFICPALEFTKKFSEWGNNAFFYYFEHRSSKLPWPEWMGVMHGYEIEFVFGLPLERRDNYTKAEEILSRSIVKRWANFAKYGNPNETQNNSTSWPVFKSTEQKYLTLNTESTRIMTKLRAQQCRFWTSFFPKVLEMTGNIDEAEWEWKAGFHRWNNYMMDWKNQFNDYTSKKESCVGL
Assay: Anticholinesterase assay
Type: biochemical
Details: read-out: %BChE Inhibition (mean ± SEM)
Numeric answer only, unit % assumed.

# annotated cases, reported inhibition at 125 µg/mL shown
>>> df
                                   compound                  readout  unit_tag  measured
0  COc1ccc2c3c1O[C@H]1C[C@@H](O)C=C[C@@]31CCN(C)C2 [Galantamine, reference compound]  inhibition at 125 µg/mL         %      64.8
1  Fc1ccccc1NC(=S)Nc1ccccc1 [Compound V, 1-(2-fluorophenyl)-3-phenylthiourea]  inhibition at 125 µg/mL         %      53.1
2  S=C(Nc1ccccc1)NC(c1ccccn1)C(Cc1ccccc1)Cc1ccccc1 (centres unmarked) [Compound III]  inhibition at 125 µg/mL         %      58.3
3  S=C(NC(c1ccccn1)C(Cc1ccccc1)Cc1ccccc1)NC(c1ccccn1)C(Cc1ccccc1)Cc1ccccc1 (centres unmarked) [Compound I]  inhibition at 125 µg/mL         %      48.1

Attention now shifts to the item below.
Lab request: please report inhibition at 125 µg/mL under test system Butyrylcholinesterase (Homo sapiens) for Cc1ccc(NC(=S)Nc2ccccc2)c(C)c1 [Compound IV, 1-(2,4-dimethylphenyl)-3-phenylthiourea] 49.8

====

Target: glucose-6-phosphatase (Homo sapiens, UniProt P35575)
Sequence (P35575 1-357): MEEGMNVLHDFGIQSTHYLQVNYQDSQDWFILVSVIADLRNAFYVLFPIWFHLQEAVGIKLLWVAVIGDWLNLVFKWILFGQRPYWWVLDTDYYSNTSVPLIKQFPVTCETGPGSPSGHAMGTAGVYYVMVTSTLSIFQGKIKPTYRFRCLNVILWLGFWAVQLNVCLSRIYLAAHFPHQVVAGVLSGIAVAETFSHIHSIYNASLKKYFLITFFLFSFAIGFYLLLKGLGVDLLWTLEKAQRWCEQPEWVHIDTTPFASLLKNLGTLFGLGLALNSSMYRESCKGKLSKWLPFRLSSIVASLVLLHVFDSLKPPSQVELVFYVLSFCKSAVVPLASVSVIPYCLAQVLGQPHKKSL
Experiment: Glucose-6-phosphatase activity
Assay type: biochemical
Conditions: concentration 250 µg/mL; 33°C, pH 6.7; control 72.0
Readout: Total Activity of glucose-6-phosphatase

>>> print(df.to_string())
                                   compound                                  readout                         measured
0  S=C(NC(c1ccccn1)C(Cc1ccccc1)Cc1ccccc1)NC(c1ccccn1)C(Cc1ccccc1)Cc1ccccc1 (stereo not shown) [Compound I]  Total Activity of glucose-6-phosphatase  31.62 mg of P released per hour

Bench note: what Total Activity of glucose-6-phosphatase did S=C(Nc1ccccc1)NC(c1ccccn1)C(Cc1ccccc1)Cc1ccccc1 (stereo not shown) [Compound III] show? 28.35 mg of P released per hour

What value of Total Activity of glucose-6-phosphatase has been reported for the following compound? Cc1ccc(NC(=S)Nc2ccccc2)c(C)c1 [Compound IV, 1-(2,4-dimethylphenyl)-3-phenylthiourea] 13.58 mg of P released per hour

Using the record for Fc1ccccc1NC(=S)Nc1ccccc1 [Compound V, 1-(2-fluorophenyl)-3-phenylthiourea] , report its Total Activity of glucose-6-phosphatase. 05.21 mg of P released per hour
